- Format: in vivo, human
- Condition parameters: human, plasma, po, 30 mg, Vz/F, geometric mean (CV%), single oral 30 mg, fasted; normal hepatic function (n = 13)
Reported property: Vd/F (L)

line_notation=Nc1cc(C(F)(F)F)c(-c2cc(N3CCOCC3)nc(N3CCOCC3)n2)cn1 result_value=381

###

- Assay type: in vivo, human
- Condition parameters: human, plasma, po, 30 mg, T1/2, geometric mean (CV%), single oral 30 mg, fasted; normal hepatic function (n = 13)
Reported property: half-life (h)

molecule="Nc1cc(C(F)(F)F)c(-c2cc(N3CCOCC3)nc(N3CCOCC3)n2)cn1 [buparlisib]" result_value=53

###

- Assay type: in vivo, human
- Condition parameters: human, plasma, po, 30 mg, Cmax, geometric mean (CV%), single oral 30 mg, fasted; normal hepatic function (n = 13)
Reported property: Cmax

line_notation=Nc1cc(C(F)(F)F)c(-c2cc(N3CCOCC3)nc(N3CCOCC3)n2)cn1 result_value="0.221 µg/mL"
